Measurement target: lumazine synthase (RibH) (Mycobacterium tuberculosis)
Procedure details: […]; also riboflavin displacement ([…] at […])
Type: binding
Observable: pKd
# pKd: negative log10 of molar concentration; output just the value

Item: Cc1ccc(N=C2NC(=O)C(=Cc3ccc([N+](=O)[O-])o3)S2)cc1 [A52] | pKd: 7.32

----------
Measurement target: lumazine synthase (RibH) (Mycobacterium tuberculosis, UniProt P9WHE9)
Sequence (P9WHE9 whole entry): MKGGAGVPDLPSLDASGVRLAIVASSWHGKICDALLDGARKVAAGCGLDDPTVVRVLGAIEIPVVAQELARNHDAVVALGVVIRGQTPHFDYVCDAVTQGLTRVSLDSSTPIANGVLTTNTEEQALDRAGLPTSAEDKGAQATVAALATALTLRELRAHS
Procedure details: biochemical
Type: binding
Observable: Kd (nM)
Please give a number only; it is taken to be in nM.

Data point: Cc1cc2nc3c(=O)[nH]c(=O)nc-3n(C[C@H](O)[C@H](O)[C@H](O)CO)c2cc1C [riboflavin] ; Kd = 86
